Entries and their refractive index
assay_summary: refractive index (Na D-line) (dimensionless); xn = mol fraction of the nth substance listed
study_conditions: 318.15 K; 100.5 kPa; Liquid; Standard Abbe refractometry; x1 = 0.95
// keep it numeric: no unit symbol after the value

For orientation, consider the following solved cases.
| compound | refractive index |
| --- | --- |
| CCCCCC(=O)OCC [ethyl hexanoate] + CCO | 1.39515 |
| CCCCCCCC(=O)OCC [ethyl octanoate] + CCO | 1.40611 |
| CCCC(=O)OCCC(C)C [3-methylbutyl butanoate] + CCO | 1.39849 |
| CCOC(=O)c1ccccc1 [ethyl benzoate] + CCO | 1.49086 |
| CC(=O)OCCC(C)C [3-methylbutyl ethanoate] + CCO | 1.38814 |

Continue with the compound presented below.
Param item = CCOC(=O)Cc1ccccc1 [ethyl phenylacetate] + CCO ; retrieve measured refractive index. 1.48323

Source of measurements: the NIST ThermoML archive (doi:10.1021/je0601208)
